Experiment: Antioxidant activity assessed as DPPH redical scavenging activity incubated for 2 hrs in dark condition
Type: physicochemical
pIC50: −log10 of the molar value.
Each record here notes measured pIC50.
property: pIC50

- compound: "C/C=C1\\NC(=O)C(CC2=C(O)/C(=C/C)NC2=O)=C1O"
  property: "pIC50"
  observedMeasurement: 4.47
- compound: "O=C1O[C@H]([C@@H](O)CO)C(O)=C1O"
  property: "pIC50"
  observedMeasurement: 4.89
- compound: "C/C=C1\\NC(=O)C(C(C2=C(O)/C(=C/C)NC2=O)[C@H](O)CO)=C1O (stereo partly drawn)"
  property: "pIC50"
  observedMeasurement: 4.43
